Just for reference, patent US20240327535A1 is where these values come from.

- SYSTEM NAME: T1, extracellular domain of rhesus monkey BCMA (rhesus monkey, UniProt F7FFA0 1-53)
- T1 construct: extracellular domain; also called RhBCMA
- T1 sequence (F7FFA0 entry or part of it): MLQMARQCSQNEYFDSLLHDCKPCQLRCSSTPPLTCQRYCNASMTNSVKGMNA
- ASSAY NAME: Octet BLI; Fab 200 nM
REPORTED ENDPOINT: pKd
Note on units: pKd is unitless, being -log10 of a concentration expressed in mol/L.

Below: 2 binders and their reported pKd.
Q) Please give the measured pKd for this binder: AB200-(2Vk31)_R2-CDR2-hs-v3 (Fab, V domains shown) VH: QVQLVQSGAEVKKPGSSVKVSCKASGGTFTNYWIHWVRQAPGQGLEWMGGIIPIFGTANYAQKFQGRVTITADKSTSTAYMELSSLRSEDTAVYYCARGAVYHGYDVIDNWGQGTLVTVSS VL: DIQMTQSPSSLSASVGDRVTITCRASQSISSYLNWYQQKPGKAPKLLIYATSNLQIGVPSRFSGSGSGTDFTLTISSLQPEDFATYYCQQFRRLPWTFGQGTKLEIKR
A) 6.67

Q) Please give the measured pKd for this binder: AB200-(2Vk31)_R2-VH-v73 (Fab, V domains shown) VH: QVQLVQSGAEVKKPGSSVKVSCKASGGTFSNYWIHWVRQAPGQGLEWMGATYRIHSDTYYAQKYKSRVTITADKSTSTAYMELSSLRSEDTAVYYCARGAVYHGYDVIDNWGQGTLVTVSS VL: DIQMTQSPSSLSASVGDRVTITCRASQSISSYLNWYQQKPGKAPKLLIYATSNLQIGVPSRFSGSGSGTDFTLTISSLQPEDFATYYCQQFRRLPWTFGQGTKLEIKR
A) 8.11

// below: pKd requested for another binder
Q) Please give the measured pKd for this binder: AB200-(2Vk31)_R2-VH-v2 (Fab, V domains shown) VH: QVQLVQSGAEVKKPGSSVKVSCKASGGTFTNYWIHWVRQAPGQGLEWMGATYRSHSTTNYNQKFKSRVTITADKSTSTAYMELSSLRSEDTAVYYCARGAVYHGYDVIDNWGQGTLVTVSS VL: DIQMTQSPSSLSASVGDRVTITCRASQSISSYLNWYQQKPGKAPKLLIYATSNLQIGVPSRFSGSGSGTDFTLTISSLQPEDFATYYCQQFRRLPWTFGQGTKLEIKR
A) 7.25
